# System: CCRF-CEM
# run.description: NCI tumour cell line growth inhibition, 48 h
Activity calls are given as the source filed them. No stated cut-off is given here; in the data, active = GI50 up to about 1.1 µM and inactive = higher.
Lab note: assign the record to one of active, inactive

Problem: How was COC(=O)C1=C(C)NC(C)=C(C(=O)OCCCN2CCC(c3ccccc3)(c3ccccc3)CC2)[C@H]1c1cccc([N+](=O)[O-])c1 [NIGULDIPINE] classified in this test?
Solution: inactive

Problem: Please let me know the test result on file for CC[C@]12C=CCN3CC[C@@]4(c5cc(Br)c(OC)cc5N(C)[C@H]4[C@@](O)(C(=O)NC(Cc4c[nH]c5ccccc45)C(=O)OC)[C@@H]1O)[C@@H]32 (some centres not stated) .
Solution: inactive

Problem: Recorded test outcome, item CC1=CC(C)C(O)C(C)/C=C\C(O)C/C=C(/C)C(=O)CC(O)C(C)\C=C/C=C\C=C/C(=O)NC2=C(O)C(=O)c3c(cc(C)c(O)c3C1=O)C2=O (configuration not stated)
Solution: inactive

Problem: What call does the record list for `CCN(CC)/[N+]([O-])=N/OC` ?
Solution: inactive

Problem: What outcome does the record of this test show for CC(=O)O[C@H]1CC[C@@]2(C)C(=CC[C@@H]3C2CC[C@]2(C)Nc4[nH]ncc4CC32)C1 (some centres not stated) ?
Solution: inactive

Problem: Given O=C(O)C(C1NCCS1)N1C(=O)c2ccccc2C1=O (configuration not stated) , state the outcome it received in this test.
Solution: inactive

Problem: Dear all, I need the recorded test outcome for CC(=O)C1=C(C)N(c2ccccc2)C2(O)C3=C(C(=O)c4ccccc4C3=O)C(O)=CC12Cl (configuration not stated) , thank you.
Solution: active

Problem: Which outcome was entered for the compound `CC(C)(C)OC(=O)n1c(Cl)c(C=O)c2ccccc21` in this test?
Solution: inactive

Problem: Please share the test call associated with COC(CCC[N+](C)(C)C)CC[N+](C)(C)C (configuration not stated) .
Solution: inactive

Problem: # outcome recorded in this test, key = CC1(C#N)CC(C)(C)C(/C=C2/CC(C)(C)C(/C=C3/OC(=N)CC3(C)C)=N2)=N1 (configuration not stated)
Solution: inactive

Problem: Called result for `Nn1c(S)nnc1-c1ccccc1Nc1ccccc1-c1nnc(S)n1N`
Solution: inactive

Problem: What was the test verdict on Clc1ccc(COC(Cn2ccnc2)c2ccc(Cl)cc2Cl)cc1 (configuration not stated) [ECONAZOLE] ?
Solution: inactive

Problem: Lab log entry: CCOc1ccc(C(CN2CCOCC2)C(C)=O)cc1OC (configuration not stated) — outcome as called in the assay?
Solution: inactive

Problem: Which outcome did this test record for the compound `Cn1c2ccccc2c2c3c(c4c5ccccc5n(C)c4c21)C(=O)N(c1ccccc1)C3=O` ?
Solution: inactive

Problem: Recorded test outcome, item Cc1ccc2c(O)c3c(cc2c1)C(=O)c1c2c(cc(O)c1C3=O)C1(C)OC(O2)C(O)C(N(C)C)C1O (configuration not stated)
Solution: active

Problem: I would be grateful if you could indicate the recorded call for COC(=O)C(=O)C(C(=O)C(=O)Nc1cc([N+](=O)[O-])ccc1[N+](=O)[O-])c1nc2ccc(C(=O)c3ccccc3)cc2nc1O (configuration not stated) .
Solution: inactive

Problem: Hey, what did the test say about `CN1CCCc2nc3ccccc3n2C1` ?
Solution: inactive

Problem: What did this assay record as the result for `c1ccc(NN(Cc2cnccn2)c2ccccc2)cc1` ?
Solution: inactive

Problem: Kindly provide the recorded test outcome for the following compound: CC(C)c1ccccc1[S+]([O-])c1ccccc1C(C)(C)O (configuration not stated)
Solution: inactive

Problem: Dear colleague, could you share the recorded outcome for CCCCCCCC1c2cc3nc(cc4[nH]c(cc5nc(cc([nH]2)[C@@]1(C)CC(=O)N(C)C)C(C)=C5CCC(=O)O)c(CCC(=O)O)c4C)C=C3C (some centres not stated) when you have a moment?
Solution: inactive

Problem: Answer briefly: the call reported for `Cc1cc(CC(=O)NCCO)n(CCO)c(=O)c1` in this assay.
Solution: inactive

Problem: Record request — test call for COc1ccc(C(CC(=O)c2ccccc2)C(=O)c2ccc3c(c2)OCO3)cc1 (configuration not stated)
Solution: inactive

Problem: Field: outcome | Entry: Clc1cccc(C2SCc3nc4ccccc4n32)c1 (configuration not stated)
Solution: inactive

Problem: Can you look up the reported call for CC(C)(CCCCC(C)(C)NCC1COc2ccccc2O1)NCC1COc2ccccc2O1 (configuration not stated) for me?
Solution: inactive

Problem: Please indicate how the test categorized CCOC1(OCC)C2C=CC1C(COS(=O)(=O)c1ccc(C)cc1)C2COS(=O)(=O)c1ccc(C)cc1 (configuration not stated) .
Solution: inactive

Problem: What did the test return for `CC(=O)Nc1cc2cc(NS(=O)(=O)c3cc(C(F)(F)F)cc(C(F)(F)F)c3)ccc2oc1=O` ?
Solution: inactive

Problem: Per the assay record, what outcome was assigned to `Cc1ccnc(NC(NC(=O)c2ccccc2)(C(F)(F)F)C(F)(F)F)c1` ?
Solution: inactive

Problem: Field: outcome | Entry: `CC(=O)Nc1ccc(C(=O)N2N=C(C)/C(=C\c3c(O)ccc4ccccc34)C2=O)cc1`
Solution: inactive

Problem: Please indicate how the test categorized Cc1ccc(NC(=O)C(=O)C2C(=O)C3=C(CC2(C)C)NC2C=CC=CC2S3)c(C)c1 (configuration not stated) .
Solution: inactive

Problem: I'd appreciate the recorded outcome for `CC1=C(O)C(=O)C2=C(C1=O)[C@@H]([C@@H](C)C/C=C/C(C)(C)O)CC[C@@H]2C` from this test.
Solution: inactive

Problem: Returns: the outcome recorded for `COc1ccc(OC)c(NC(=O)CCC/C(CC(=O)c2ccc(O)c(OC)c2)=N\Nc2ccc([N+](=O)[O-])cc2)c1` in this assay.
Solution: inactive

Problem: Give the logged outcome of this assay for the following compound: COc1ccccc1C1SCC(=O)N1c1ccc(-c2ccc(-n3c(-c4ccccc4)nc4ccccc4c3=O)cc2)cc1 (configuration not stated)
Solution: inactive

Problem: GET /call?item= `CN1CCN(c2ccc3[nH]c(-c4ccc5[nH]c(-c6ccc(N(C)CCCl)cc6)nc5c4)nc3c2)CC1` returns the recorded outcome of this test.
Solution: active

Problem: Tell me the recorded outcome of this test for Oc1nc2cc(Cl)ccc2nc1/C(=N\Nc1ccccc1)C(O)c1ccc(Cl)c(Cl)c1 (configuration not stated) .
Solution: inactive

Problem: Look up the recorded call for COC(=O)c1cc2c(cc1CC1Cc3cc4c(cc3C1=O)CCC4)CCC2 (configuration not stated) in this test.
Solution: inactive

Problem: Per the assay record, what outcome was assigned to CNC1C(O)C(NC)C2OC3(O)C(=O)CC(C)OC3OC2C1O (configuration not stated) ?
Solution: inactive

Problem: Which outcome did this test record for the compound `CC(=O)N(C(=O)CC(=O)N/N=C\c1ccc(Br)c(N(CCC#N)CCC#N)c1)c1ccc(Cl)cc1` ?
Solution: inactive

====

Please respond with reported GI50 for every item in the list.
# Test system: TK-10
# run.description: NCI tumour cell line growth inhibition, 48 h
Active and inactive are the calls of the source. Rule as the data show it: active = GI50 up to about 1.1 µM and inactive = higher. Where a SMILES comes first, the peptide text is derived from it. [ ]: non-standard residue; d: D form. Ac5c = NC1(C(=O)O)CCCC1

Problem: Need GI50, item CCCCC/C=C1/CC(CO)(COC(=O)CC(C(C)C)C(C)C)OC1=O (configuration not stated)
Solution: 11.8 µM (inactive)

Problem: // returns reported GI50 for input `CCOC(=O)c1c(NC(=O)OC)c(C#N)c2n1CCCCC2`
Solution: > 100 µM (inactive)

Problem: Tell me the measured GI50 of CC1=CC(C)C(C)N(CCNC(=O)Nc2ccccc2)c2ccccc21 (configuration not stated) , please.
Solution: 20.9 µM (inactive)

Problem: Requested read-out: GI50. Entry: `CC(=O)OCC(=O)[C@@]12OC(C)(C)O[C@@H]1C[C@H]1[C@@H]3CC=C4C[C@@H](O)CC[C@]4(C)[C@H]3CC[C@@]12C`
Solution: 40.3 µM (inactive)

Problem: Tell me the measured GI50 of CC1(C#N)CC(C)(C)C(/C=C2/CC(C)(C)C(/C=C3/OC(=N)CC3(C)C)=N2)=N1 (configuration not stated) , please.
Solution: 31 µM (inactive)

Problem: I have this compound here, `Cc1nc2ccc(Cl)cc2c2c1CCO2` , and I need its recorded GI50.
Solution: 64.7 µM (inactive)

Problem: Could you share which GI50 value was measured for CCOc1ccc(/N=N/C2C(=O)N(C(=O)CC(=O)Nc3ccc(Cl)cc3)N=C2C)cc1 (configuration not stated) ?
Solution: > 100 µM (inactive)

Problem: Would you mind telling me what GI50 value was observed for `CC[C@H](CCCC[C@H]1CC[C@@H]2CC(=O)C[C@H]12)OC` ?
Solution: > 100 µM (inactive)

Problem: Given the entry `Nc1ncnc2c1sc(=S)n2-c1ccccc1` , report its measured GI50.
Solution: > 100 µM (inactive)

Problem: Recorded GI50 of `Cc1c(/C=N\NC(=S)N2CCN(C(=S)N/N=C\c3c(C)n(C)n(-c4ccccc4)c3=O)CC2)c(=O)n(-c2ccccc2)n1C` , please.
Solution: 5.7 µM (inactive)

Problem: What value of GI50 has been reported for the following compound? COC(CCC[N+](C)(C)C)CC[N+](C)(C)C (configuration not stated)
Solution: > 100 µM (inactive)

Problem: Which measured GI50 value corresponds to CC1OC(n2cnc3c(N)nc(Cl)nc32)C(C)(O)C1O (configuration not stated) ?
Solution: > 25 µM (inactive)

Problem: Tell me the measured GI50 of `O=C1CCCC/C(=C/c2ccccc2)N1` , please.
Solution: > 100 µM (inactive)

Problem: For `CC(C)(C)c1cc(-c2cc(C(C)(C)C)n(-c3ccccc3)n2)nn1-c1ccccc1` , what is its reported GI50?
Solution: > 100 µM (inactive)

Problem: GI50 for `COC(=O)Cc1c([C@H]2[C@H](CC(=O)OC)c3ccccc3N2S(=O)(=O)c2ccc(C)cc2)[nH]c2ccccc12` ?
Solution: > 100 µM (inactive)

Problem: Data request, read-out GI50, for `c1ccc(COc2nc3cc(C45CC6CC(CC(C6)C4)C5)ccc3[nH]2)cc1`
Solution: 4.65 µM (inactive)

Problem: What measured GI50 goes with `Cc1ccccc1N/N=C1\C(=O)Nc2ccccc21` ?
Solution: > 100 µM (inactive)

Problem: If you can, please state the reported GI50 value of N/N=C1\C(=O)N(c2ccc(Cl)cc2Cl)C(=O)C(=O)C1c1nc2ccccc2o1 (configuration not stated) .
Solution: > 100 µM (inactive)

Problem: Recorded GI50 for `CC(=O)CC(O)(C(F)(F)Cl)C(F)(F)Cl` , please?
Solution: > 10 µM (inactive)

Problem: Look at this compound and give its reported GI50. O=C1OC2c3ccccc3C(=O)C2(c2ccccc2)N1c1ccccc1 (configuration not stated)
Solution: > 200 µM (inactive)

Problem: Need GI50 of `O=[N+]([O-])c1cc2oc(COc3ccccc3)nc2cc1Cl` , thanks.
Solution: 35 µM (inactive)

Problem: // query GI50 value for entry O=C(Nc1cccc(O)c1)C(=O)C(C(=O)c1ccccc1F)C1OC(=O)c2ccccc21 (configuration not stated)
Solution: 58.9 µM (inactive)

Problem: // query GI50 value for entry `c1ccc(NN(Cc2cnccn2)c2ccccc2)cc1`
Solution: > 100 µM (inactive)

Problem: Look up GI50: OC(c1cc2ccccc2o1)c1cc2ccccc2s1 (configuration not stated)
Solution: > 10 µM (inactive)

Problem: Param item = `COC(=O)CCSC(=O)Nc1ccc(/N=N/c2ccccc2)cc1` ; retrieve measured GI50.
Solution: 61.8 µM (inactive)

Problem: Reported GI50 for COC(=O)C1(NC(=O)C(C)NC(=O)C(CCCCN)NC(=O)C(CC(C)C)NC(C)=O)CCCC1 (configuration not stated) (Ac-LKA[Ac5c]-OMe; configuration not given here) : what is it?
Solution: > 100 µM (inactive)

Problem: Fill blank: measured GI50 of the compound CCC(c1ccccc1)c1cc(C(C)(C)C)cc(C(C)(C)C)c1O (configuration not stated) is ____.
Solution: 15.5 µM (inactive)

Problem: GI50 lookup needed for CCOP(=O)(C/C(O)=C1\C(=O)C(CCCNC(=O)OC(C)(C)C)N(Cc2ccc(OC)c(OC)c2)C1=O)OCC (configuration not stated) , thanks.
Solution: > 100 µM (inactive)

Problem: Which value of GI50 has been reported for `Cc1n[nH]c(=O)n1N1C(=O)c2ccccc2C1=O` in the records?
Solution: > 100 µM (inactive)

Problem: Need GI50 of CC1=CC(N2C(=O)C(C)=CC2O)NC1=O (configuration not stated) , thanks.
Solution: > 100 µM (inactive)

Problem: Need GI50, item CC(=O)NC1C(OCC(=O)NCCNc2ccc([N+](=O)[O-])c3[nH]c4ccccc4c(=O)c23)C(O)C(CO)OC1(C)OCc1ccccc1 (configuration not stated)
Solution: > 100 µM (inactive)

Problem: Can you look up the measured GI50 of CCO/C=C/C(C)C1(C(=O)OCC)CCCCC1=O (configuration not stated) for me?
Solution: > 100 µM (inactive)

Problem: Which GI50 value belongs to `CSc1c(C#N)c(N)nc2c(/N=N\c3ccc(Br)cc3)c(N)nn12` ?
Solution: 15 µM (inactive)

Problem: Look up GI50 for this compound: `CCc1n[nH]c(=O)n1-c1ccc2ccccc2c1`
Solution: > 100 µM (inactive)

Problem: Given CCC(C(=O)c1cccs1)C(O)(C(F)(F)F)C(F)(F)F (configuration not stated) , state its recorded GI50.
Solution: > 100 µM (inactive)

Problem: Need GI50, item `Cc1cc(CC(=O)NCCO)n(CCO)c(=O)c1`
Solution: > 100 µM (inactive)

Problem: Name the reported GI50 value associated with the compound `O=C1c2ccccc2-c2nc(-c3cccnc3)cc3c2c1nc1ccccc13`
Solution: > 100 µM (inactive)

Problem: Find the recorded GI50 belonging to `O=c1nc(/C=C/c2ccccc2Cl)cc2n1CCN2CCO` and report it.
Solution: > 100 µM (inactive)

Problem: Which value of GI50 has been reported for O=CN1CCN(CC(O)CN2CCCCC2)CC1 (configuration not stated) in the records?
Solution: > 100 µM (inactive)

Problem: Please give the measured GI50 for this compound: CN(CCO)CCCC1COc2ccccc2O1 (configuration not stated)
Solution: > 100 µM (inactive)

Problem: Given the entry `O[C@@]12Cc3c([nH]c4ccccc34)[C@@H]3Oc4cccc5c4[C@@]31CCN(CC1CC1)[C@@H]2C5` , report its measured GI50.
Solution: 19.2 µM (inactive)

Problem: Any idea what GI50 was measured for `O=C1O/C(=C(\Br)c2cccc3ccccc23)c2ccccc21` ?
Solution: 30.4 µM (inactive)
